- target-entity: reuptake of dopamine(DA) in synaptosomes (Rattus norvegicus)
- Construct: in synaptosomes as described in WO 97/16451; from tissue
- Sequence (P23977 whole entry): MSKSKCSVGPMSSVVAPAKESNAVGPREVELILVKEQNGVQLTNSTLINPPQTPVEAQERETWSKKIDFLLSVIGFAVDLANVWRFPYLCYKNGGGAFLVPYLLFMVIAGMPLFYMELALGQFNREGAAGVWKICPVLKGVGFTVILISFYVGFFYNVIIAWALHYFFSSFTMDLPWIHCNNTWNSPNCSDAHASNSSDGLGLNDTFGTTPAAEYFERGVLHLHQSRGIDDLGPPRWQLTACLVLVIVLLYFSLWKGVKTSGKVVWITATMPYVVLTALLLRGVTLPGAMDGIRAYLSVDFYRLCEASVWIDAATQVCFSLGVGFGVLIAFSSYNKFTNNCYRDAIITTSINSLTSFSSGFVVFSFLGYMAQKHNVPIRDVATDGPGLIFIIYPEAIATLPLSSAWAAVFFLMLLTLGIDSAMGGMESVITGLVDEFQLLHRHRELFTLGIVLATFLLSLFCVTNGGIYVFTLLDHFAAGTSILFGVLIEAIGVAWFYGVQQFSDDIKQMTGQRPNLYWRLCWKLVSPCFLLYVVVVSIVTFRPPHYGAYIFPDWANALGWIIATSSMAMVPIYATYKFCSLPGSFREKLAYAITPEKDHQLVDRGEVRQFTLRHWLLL
- method-summary: Inhibition of dopamine (DA) reuptake in synaptosomes
- Assay type: biochemical
reported-metric: pIC50
Give bare numbers, as −log10 of the molar value.

CN1C2CCC1[C@H](COc1ccc(Cl)c(Cl)c1)[C@@H](c1ccc(Cl)c(Cl)c1)C2 (some centres unmarked) [Compound 15a]	7.82

Could you now consider this next compound?
Look up pIC50 with reuptake of dopamine(DA) in synaptosomes (Rattus norvegicus) for this compound: CN1C2CCC1[C@H](COc1ccc(Cl)c(Cl)c1)[C@@H](c1ccccc1)C2 (some centres unmarked) [Compound 13a]
6.27

Data provenance: patent US20040235906A1
